- subject.of.test: human ATX (autotaxin, ENPP2), His-tagged (Homo sapiens (Human))
Assign labels as follows, please: Y for IC50 below 80 nM; N for IC50 equal to or exceeding 80 nM.

See these solved cases before continuing.
compound	assigned.label
CC(=O)N1CCN(c2ccc3ncn(CC(=O)N(C)Cc4ccc(C#N)c(Cl)c4)c(=O)c3c2)CC1	Y
Cc1nc(C)c(CN2CCN(c3ccc4ncn(CC(=O)NCc5ccc(Cl)c(Cl)c5)c(=O)c4c3)CC2)o1	N
CC(=O)N1CCC(c2ccc3ncn(CC(=O)N(C)Cc4ccc(C#N)c(F)c4)c(=O)c3c2)CC1	Y
CC(=O)N1CCN(c2ccc3ncn(CC(=O)NCc4ccc(C(F)(F)F)cc4)c(=O)c3c2)CC1	N
O=C(Cn1cnc2ccc(N3CCN(C(=O)NC4CCCC4)CC3)cc2c1=O)NCc1ccc(Cl)c(Cl)c1	Y
COCC(=O)N1CCC(c2ccc3ncn(CC(=O)N(Cc4ccc(Cl)c(Cl)c4)C4CC4)c(=O)c3c2)CC1	Y

Next, consider the following compound.
Query string: Lab note: confirm whether the reported IC50 for this compound is below 80 nM, equality not counting. compound: COC1CC(C(=O)N2CCN(c3ccc4ncn(CC(=O)N(C)Cc5ccc(Cl)c(Cl)c5)c(=O)c4c3)CC2)C1 (stereo not drawn)
Result string: Y

---

Provide the reported IC50 of each item.
- subject.of.test: human ATX (autotaxin, ENPP2), His-tagged (Homo sapiens (Human), UniProt Q13822)
Kindly write the number and append the unit.

For orientation, consider the following solved cases.
compound	IC50
CC(=O)N1CCN(c2ccc3ncn(CC(=O)NCc4cccc([N+](=O)[O-])c4)c(=O)c3c2)CC1	73 nM
CC(=O)N1CCC(c2ccc3ncn(CC(=O)N(C)Cc4ccc(Cl)c(Cl)c4)c(=O)c3c2)CC1	7 nM

Return reported IC50 values for all items listed beneath this line.
1. CC(=O)N1CCN(c2ccc3ncn(CC(=O)NC(CC(=O)Nc4ccccc4)c4ccc(C(F)(F)F)cc4)c(=O)c3c2)CC1 (stereo not shown)
2. O=C(Cn1cnc2ccc(N3CCN(C(=O)NC4CC4)CC3)cc2c1=O)NCc1ccc(Cl)c(Cl)c1
3. CN(Cc1ccc(C#N)c(Cl)c1)C(=O)Cn1cnc2ccc(C3CCN(C(=O)CO[N+](=O)[O-])CC3)cc2c1=O
4. O=C(Cn1cnc2ccc(N3CCN(CC4CCOC4)CC3)cc2c1=O)NCc1ccc(Cl)c(Cl)c1 (stereo not shown)
5. CC(C)NC(=O)CN1CCN(c2ccc3ncn(CC(=O)N(C)Cc4ccc(Cl)c(Cl)c4)c(=O)c3c2)CC1

Result string:
1: 84 nM; 2: 30 nM; 3: 4 nM; 4: 4 nM; 5: 35 nM

---

- subject.of.test: human ATX (autotaxin, ENPP2), His-tagged (Homo sapiens (Human), UniProt Q13822)
Assign labels as follows, please: Y for IC50 below 0.03 µM; N for IC50 equal to or exceeding 0.03 µM.

See these solved cases before continuing.
smiles.entry	assigned.label
CN(Cc1ccc(Cl)c(Cl)c1)C(=O)Cn1cnc2ccc(N3CCN(C(=O)C4(C(F)(F)F)CCC4)CC3)cc2c1=O	Y
CC(=O)N1CCC(c2ccc3ncn(CC(=O)NCc4cc(Cl)cc(C(F)(F)F)c4)c(=O)c3c2)CC1	Y
C[C@@H](O)C(=O)N1CCC(c2ccc3ncn(CC(=O)N(C)Cc4ccc(C#N)c(Cl)c4)c(=O)c3c2)CC1	N
CC(=O)N1CCCN(c2ccc3ncn(CC(=O)N(C)Cc4ccc(C#N)c(Cl)c4)c(=O)c3c2)CC1	Y
CC(=O)N1CCN(c2ccc3ncn(CC(=O)NCc4ccc(Cl)nc4)c(=O)c3c2)CC1	N

Query string: Lab note: confirm whether the reported IC50 for this molecule is below 0.03 µM, equality not counting. molecule: `Cn1cccc1CN1CCN(c2ccc3ncn(CC(=O)NCc4ccc(Cl)c(Cl)c4)c(=O)c3c2)CC1`
Result string: N

Query string: Lab note: confirm whether the reported IC50 for this molecule is below 0.03 µM, equality not counting. molecule: `CO[C@@H](C)C(=O)N1CCC(c2ccc3ncn(CC(=O)N(C)Cc4ccc(Cl)c(Cl)c4)c(=O)c3c2)CC1`
Result string: Y

---

Provide the reported IC50 of each item.
- subject.of.test: human ATX (autotaxin, ENPP2), His-tagged (Homo sapiens (Human))

For orientation, consider the following solved cases.
molecule	subject.of.test	IC50
CC(=O)N1CCN(c2ccc3ncn(CC(=O)NC(CC(=O)N(C)C)c4ccc(Cl)cc4)c(=O)c3c2)CC1 (stereo not shown)	human ATX (autotaxin, ENPP2), His-tagged (Homo sapiens (Human))	360 nM
CN(Cc1ccc(Cl)c(Cl)c1)C(=O)Cn1cnc2ccc(N3CCN(CC4CC4)CC3)cc2c1=O	human ATX (autotaxin, ENPP2), His-tagged (Homo sapiens (Human))	64 nM
CN(Cc1ccc(Cl)c(Cl)c1)C(=O)Cn1cnc2ccc(N3CCN(S(=O)(=O)CC4CCC4)CC3)cc2c1=O	human ATX (autotaxin, ENPP2), His-tagged (Homo sapiens (Human))	7 nM
CN(Cc1ccc(C#N)c(Cl)c1)C(=O)Cn1cnc2ccc(C3CCN(C(=O)C4CCC4)CC3)cc2c1=O	human ATX (autotaxin, ENPP2), His-tagged (Homo sapiens (Human))	2 nM

Return reported IC50 values for all items listed beneath this line.
1. O=C(Cn1cnc2ccc(N3CCN(C(=O)c4ccno4)CC3)cc2c1=O)NCc1ccc(Cl)c(Cl)c1
2. CCCCC(=O)N1CCN(c2ccc3ncn(CC(=O)NCc4ccc(Cl)c(Cl)c4)c(=O)c3c2)CC1
3. O=C(Cn1cnc2ccc(N3CCN(CCO)CC3)cc2c1=O)NCc1ccc(Cl)c(Cl)c1

Result string:
["15 nM", "10 nM", "67 nM"]

---

- subject.of.test: human ATX (autotaxin, ENPP2), His-tagged (Homo sapiens (Human))
Provide the reported IC50 of each item.
Give bare numbers, in nM.

molecule	subject.of.test	units.symbol	IC50
CN(Cc1ccc(Cl)c(Cl)c1)C(=O)Cn1cnc2ccc(N3CCN(CC(=O)N4CCOCC4)CC3)cc2c1=O [Example 111]	human ATX (autotaxin, ENPP2), His-tagged (Homo sapiens (Human))	nM	35
O=C(Cn1cnc2ccc(N3CCN(S(=O)(=O)C4CCCC4)CC3)cc2c1=O)NCc1ccc(Cl)c(Cl)c1 [Example 89]	human ATX (autotaxin, ENPP2), His-tagged (Homo sapiens (Human))	nM	20
CC(=O)N1CCN(c2ccc3ncn(CC(=O)NCc4ccc(C#N)c(Cl)c4)c(=O)c3c2)CC1 [Example 25]	human ATX (autotaxin, ENPP2), His-tagged (Homo sapiens (Human))	nM	16
C[C@H](O)C(=O)N1CCC(c2ccc3ncn(CC(=O)N(C)Cc4ccc(Cl)c(Cl)c4)c(=O)c3c2)CC1 [Example 175]	human ATX (autotaxin, ENPP2), His-tagged (Homo sapiens (Human))	nM	15
CC(=O)N1CCN(c2ccc3ncn(CC(=O)N(CCC(=O)O)Cc4ccc(Cl)c(Cl)c4)c(=O)c3c2)CC1 [Example 54]	human ATX (autotaxin, ENPP2), His-tagged (Homo sapiens (Human))	nM	831
CC(=O)N1CCN(c2ccc3ncn(CC(=O)NCc4ccc(C#N)cc4F)c(=O)c3c2)CC1 [Example 30]	human ATX (autotaxin, ENPP2), His-tagged (Homo sapiens (Human))	nM	139
CNC(=O)C[C@@H](NC(=O)Cn1cnc2ccc(N3CCN(C(C)=O)CC3)cc2c1=O)c1ccc(Cl)cc1 [Example 1]	human ATX (autotaxin, ENPP2), His-tagged (Homo sapiens (Human))	nM	269
COCC(=O)N1CCN(c2ccc3ncn(CC(=O)NCc4ccc(Cl)c(Cl)c4)c(=O)c3c2)CC1 [Example 61]	human ATX (autotaxin, ENPP2), His-tagged (Homo sapiens (Human))	nM	16

Return reported IC50 values for all items listed beneath this line.
1. CC(C)OCC(=O)N1CCC(c2ccc3ncn(CC(=O)N(C)Cc4ccc(C#N)c(Cl)c4)c(=O)c3c2)CC1 [Example 135]
2. CC(=O)N1CC2CC1CC2c1ccc2ncn(CC(=O)NCc3ccc(Cl)c(Cl)c3)c(=O)c2c1 (centres unmarked) [Example 147]
3. CC(=O)N1CCN(c2ccc3ncn(CC(=O)NCc4c(F)cc(C#N)cc4F)c(=O)c3c2)CC1 [Example 31]

Result string:
1: 1; 2: 140; 3: 331

Return reported IC50 values for all items listed beneath this line.
1. CC(=O)N1CCN(c2ccc3ncn(CC(=O)NCc4ccc(C#N)cc4Cl)c(=O)c3c2)CC1 [Example 29]
2. CN(Cc1ccc(C#N)c(Cl)c1)C(=O)Cn1cnc2ccc(C3CCN(C(=O)CC#N)CC3)cc2c1=O [Example 154]
3. COC(=O)CCN(Cc1ccc(Cl)c(Cl)c1)C(=O)Cn1cnc2ccc(N3CCN(C(C)=O)CC3)cc2c1=O [Example 53]
4. NS(=O)(=O)CC(=O)N1CCN(c2ccc3ncn(CC(=O)NCc4ccc(Cl)c(Cl)c4)c(=O)c3c2)CC1 [Example 71]
5. CC(=O)N1CCC(c2ccc3ncn(CC(=O)N(C)Cc4ccc(C#N)c(Cl)c4)c(=O)c3c2)CC1 [Example 125]
6. CO[C@@H](C)C(=O)N1CCC(c2ccc3ncn(CC(=O)N(C)Cc4ccc(C#N)c(Cl)c4)c(=O)c3c2)CC1 [Example 159]

Result string:
1: 175; 2: 2; 3: 18; 4: 26; 5: 7; 6: 1
